# credit: patent US10202379B2

molecular target: Cap-dependant Endonuclease (CEN) (RNP fraction, PB1-PB2-PA complex) (Influenza A virus (strain A/Wilson-Smith/1933 H1N1) (Influenza A virus (strain A/WS/1933 H1N1))); format: biochemical, influenza A/WSN/33 virus; details: parent compounds (Reference examples); room temperature, 60 minutes
Experimental Readout: pIC50
Recall that pIC50 is obtained by taking minus log10 of the concentration measured in molar.

Solved cases below.
>  <Compound>
C[C@@H](N1CN(C2c3ccccc3CCc3cccc(Cl)c32)n2ccc(=O)c(O)c2C1=O)C(F)(F)F (some centres unmarked) [compound 686]

>  <pIC50>
7.82

$$$$
>  <Compound>
CCc1cccc2c1[C@H](N1CN([C@H](C)C(F)(F)F)C(=O)c3c(O)c(=O)ccn31)c1cccc(F)c1SC2 [compound 724]

>  <pIC50>
8.29

$$$$
>  <Compound>
C[C@@H](N1CN([C@@H]2c3ccccc3SCc3cccc(C4CC4)c32)n2ccc(=O)c(O)c2C1=O)C(F)(F)F [compound 691]

>  <pIC50>
8.44

$$$$
>  <Compound>
C[C@@H](N1CN([C@@H]2c3ccccc3CCc3c(F)cccc32)n2ccc(=O)c(O)c2C1=O)C(F)(F)F [Reference example 634]

>  <pIC50>
6.99

$$$$
>  <Compound>
C[C@@H](N1CN([C@H]2c3ccccc3CSc3ccccc32)n2cc(CO)c(=O)c(O)c2C1=O)C(F)(F)F [compound 712]

>  <pIC50>
7.79

$$$$
>  <Compound>
CC(=O)c1cn2c(c(O)c1=O)C(=O)N([C@H](C)C(F)(F)F)CN2[C@H]1c2cc(F)c(F)cc2CSc2ccccc21 [compound 692]

>  <pIC50>
7.43

$$$$
>  <Compound>
Cc1cccc2c1CSc1c(F)cccc1[C@H]2N1CN([C@H](C)C(F)(F)F)C(=O)c2c(O)c(=O)ccn21 [Reference example 617]

>  <pIC50>
7.28

$$$$
>  <Compound>
Cc1cccc2c1SCc1cccc(Cl)c1[C@@H]2N1CN([C@H](C)C(F)(F)F)C(=O)c2c(O)c(=O)ccn21 [compound 768]

>  <pIC50>
7.82

$$$$

Query: Which pIC50 value is on record for C[C@@H](N1CN([C@@H]2c3ccccc3SCc3c2ccc(F)c3F)n2cc(B(O)O)c(=O)c(O)c2C1=O)C(F)(F)F [compound 709] ?
Result: 7.46

Query: So what does the record say about pIC50 for C[C@@H](N1CN([C@@H]2c3ccccc3SCc3c(F)cccc32)n2ccc(=O)c(O)c2C1=O)C(F)(F)F [Reference example 445] ?
Result: 7.89

Query: Look at this compound and give its reported pIC50. C[C@@H](N1CN([C@H]2c3ccc(F)cc3CSc3c(Br)cccc32)n2ccc(=O)c(O)c2C1=O)C(F)(F)F [Reference example 619]
Result: 8.30

Query: Look at this compound and give its reported pIC50. C[C@@H](N1CN([C@@H]2c3ccccc3SCc3cccc(Cl)c32)n2cc(B(O)O)c(=O)c(O)c2C1=O)C(F)(F)F [compound 707]
Result: 7.40

Query: Could you tell me which pIC50 is on file for C[C@@H](N1CN([C@H]2c3ccccc3CCc3c(F)cccc32)n2ccc(=O)c(O)c2C1=O)C(F)(F)F [Reference example 628] ?
Result: 7.37

Query: Any idea what its pIC50 is? The compound is Cc1cccc2c1[C@H](N1CN([C@H](C)C(F)(F)F)C(=O)c3c(O)c(=O)ccn31)c1ccccc1SC2 [Reference example 665]
Result: 7.74

Query: Would you mind telling me what pIC50 value was observed for CCc1cccc2c1[C@H](N1CN([C@H](C)C(F)(F)F)C(=O)c3c(O)c(=O)ccn31)c1ccccc1SC2 [compound 731] ?
Result: 8.24

Query: Returns the measured pIC50 for the input compound. Input: C[C@@H](N1CN(C(c2ccc(F)cc2)c2ccc(F)cc2)n2ccc(=O)c(O)c2C1=O)C(F)(F)F [Reference example 649]
Result: 6.74

Query: Record request: pIC50 value, item C[C@@H](N1CN([C@@H]2c3ccccc3CCc3c(Cl)cccc32)n2ccc(=O)c(O)c2C1=O)C(F)(F)F [Reference example 641]
Result: 7.34

Query: Need pIC50, item C[C@@H]1Sc2ccccc2[C@@H](N2CN([C@H](C)C(F)(F)F)C(=O)c3c(O)c(=O)ccn32)c2c(Cl)cccc21 [compound 748]
Result: 7.62

Query: pIC50; subject: C[C@@H](N1CN([C@H]2c3ccccc3CSc3cccc(F)c32)n2ccc(=O)c(O)c2C1=O)C(F)(F)F [Reference example 603]
Result: 7.43

Query: Could you share which pIC50 value was measured for C#Cc1cccc2c1[C@H](N1CN([C@H](C)C(F)(F)F)C(=O)c3c(O)c(=O)ccn31)c1ccccc1SC2 [compound 730] ?
Result: 8.60

Query: Tell me the measured pIC50 of C[C@@H](N1CN([C@@H]2c3ccc(F)cc3SCc3cccc(F)c32)n2ccc(=O)c(O)c2C1=O)C(F)(F)F [Reference example 598] , please.
Result: 7.80

Query: Entry under review: C[C@@H](CO)N1CN(C2c3ccccc3CSc3ccccc32)n2ccc(=O)c(O)c2C1=O (some centres unmarked) [Reference example 375] . Reported pIC50?
Result: 7.43
